target: T1, human TF ECD-His (hTF-his) (human, UniProt P13726 33-251); assay: SPR Biacore T200, antibody on Protein A chip, TF-His as analyte, 1:1 model
T1 construct: also called bio-hTF-his; human TF-His protein
pKd: −log10 of the molar value.
OBSERVED PROPERTY: pKd

INSERT INTO measurements (binder, obs_value) VALUES
  ('hu67-3 (antibody, human IgG1, kappa, V domains shown) VH: EVQLQESGPGLVKPSQTLSLTCTVSGFSLTNYGVNWIRQPPGKGLEWIGVIWSRGNTDYNAAFISRVTISKDTSKNQVSLKLSSVTAADTAVYYCARKDAVVATDALDYWGQGTTVTVSS VL: DIVMTQSPKSLAVSLGERATINCKASQDVSTAVAWYQQKPGQPPKLLIYSTSYRYTGVPDRFSGSGSGTDFTLTISSLQAEDVAVYYCQQHYSTPYTFGGGTKVEIKR', 7.85);

Values from patent EP4703388A1
